- Tested on: Plasmodium berghei
- assay-comment: Luciferase/luciferin-expressing antifolate-resistant parasites were used to infect a culture of HepG2 cells that were pre-incubated with compounds. Infected hepatocytes emit light due to the luciferase reaction. Assay results are presented as the percent inhibition of light emission compared to control. […]
- Format: functional
- condition-context: sporozoite, FFLUC_HILL_SLOPE 47.1, FFLUC_R_SQUARED 0.757, PBLUC_HILL_SLOPE 11.3, PBLUC_R_SQUARED 0.251, read-out: LUCIFERASE INFECTION ASSAY - IC50
reported-property: IC50 (µM)

{"columns": ["compound", "readout-number"],
 "data": [
  ["Cn1c(=O)c(C2=NN(C(=O)c3cccs3)C(c3ccco3)C2)c(-c2ccccc2)c2cc(Cl)ccc21 (stereo unspecified)", 9.29]
]}

* * *

- Test system: Plasmodium berghei
- assay-comment: Luciferase/luciferin-expressing antifolate-resistant parasites were used to infect a culture of HepG2 cells that were pre-incubated with compounds. Infected hepatocytes emit light due to the luciferase reaction. Assay results are presented as the percent inhibition of light emission compared to control. […]
- Type: functional
- condition-context: sporozoite, PBLUC_HILL_SLOPE 20.6, PBLUC_R_SQUARED 0.32, read-out: LUCIFERASE INFECTION ASSAY - IC50
reported-property: IC50 (µM)

{"columns": ["sample-smiles", "readout-units", "readout-number"],
 "data": [
  ["COc1cc(NC(=O)Nc2ccc3nc(Cc4ccccc4)nn3c2)cc(OC)c1OC", "µM", 3.87]
]}

* * *

- Test system: Plasmodium berghei
- assay-comment: Luciferase/luciferin-expressing antifolate-resistant parasites were used to infect a culture of HepG2 cells that were pre-incubated with compounds. Infected hepatocytes emit light due to the luciferase reaction. Assay results are presented as the percent inhibition of light emission compared to control. […]
- Assay type: functional
- condition-context: sporozoite, PBLUC_HILL_SLOPE 2.91, PBLUC_R_SQUARED 0.109, read-out: LUCIFERASE INFECTION ASSAY - IC50

{"columns": ["compound", "readout-units", "IC50"],
 "data": [
  ["CCOC(=O)C1CCCN(Cn2nc(-c3ccc(Br)cc3)n(C3CCCCC3)c2=S)C1 (stereo unspecified)", "µM", 5.86]
]}

* * *

- Test system: Plasmodium berghei
- assay-comment: Luciferase/luciferin-expressing antifolate-resistant parasites were used to infect a culture of HepG2 cells that were pre-incubated with compounds. Infected hepatocytes emit light due to the luciferase reaction. Assay results are presented as the percent inhibition of light emission compared to control. […]
- Format: functional
- condition-context: sporozoite, HEPG2TOX_HILL_SLOPE 2.95, HEPG2TOX_R_SQUARED 0.777, PBLUC_HILL_SLOPE 11, PBLUC_R_SQUARED 0.184, read-out: LUCIFERASE INFECTION ASSAY - IC50
pIC50: −log10 of the molar value.

{"columns": ["sample-smiles", "pIC50"],
 "data": [
  ["Nc1nccnc1C(=O)NNC(=O)c1cc2c(s1)CCCCCC2", 5.52]
]}

* * *

// reported IC90 per item
- Test system: Plasmodium berghei
- assay-comment: Luciferase/luciferin-expressing antifolate-resistant parasites were used to infect a culture of HepG2 cells that were pre-incubated with compounds. Infected hepatocytes emit light due to the luciferase reaction. Assay results are presented as the percent inhibition of light emission compared to control. […]
- Format: functional
- condition-context: sporozoite, read-out: LUCIFERASE INFECTION ASSAY - IC90

{"columns": ["compound", "readout-units", "value-operator", "IC90"],
 "data": [
  ["Cc1cc(C(=O)COC(=O)/C=C/c2cn(C)c(=O)n(C)c2=O)c(C)n1CCc1ccc(Cl)cc1", "µM", ">", 10],
  ["COc1ccc(S(=O)(=O)Nc2ccccc2C(=O)NNC(=O)c2ccccc2O)cc1", "µM", "=", 4.69],
  ["NC(=O)C(C(=O)/C=C/c1ccc(Cl)cc1)=C1SCCS1", "µM", "=", 7.51],
  ["Cc1ccc(-n2nnnc2SCc2c(F)cccc2Cl)c(C)c1", "µM", ">", 9.46],
  ["O=[N+]([O-])c1cccc(-c2csc(-n3nccc3C(F)(F)F)n2)c1", "µM", ">", 10],
  ["Brc1ccc(C2C(c3nc4ccccc4[nH]3)=C(c3ccccc3)N=C(c3ccccc3)C2c2nc3ccccc3[nH]2)cc1 (stereo unspecified)", "µM", ">", 10],
  ["Cn1ccc2cc(-c3cn4c(-c5ccc(C#N)cc5)cnc4cn3)ccc21", "µM", "=", 0.546],
  ["COc1ccc(CCN=C(S)Nc2ccccc2C)cc1", "µM", ">", 11],
  ["Cc1ccc2c(c1)C1CN(C)CCC1N2C(=O)CCCOc1ccc(Cl)cc1Cl (stereo unspecified)", "µM", ">", 10],
  ["CCOc1ccc(C(C)=O)cc1CSc1nc2ccccc2c(=O)n1C(C)COC (stereo unspecified)", "µM", "=", 3.98],
  ["COc1ccc(C2(c3ccc(OC)cc3)NC(=O)N(CC(=O)c3cc(C)n(C4CC4)c3C)C2=O)cc1", "µM", ">", 10],
  ["OC[C@H]1O[C@@H](c2nc3cc(-c4nc(-c5ccccc5F)no4)ccc3[nH]2)C[C@@H]1O", "µM", "=", 2.9],
  ["Cc1noc(N)c1C(=O)OCc1cccc2cccnc12", "µM", ">", 10],
  ["Cc1ccc(S(=O)(=O)Nc2cccc3ncccc23)s1", "µM", "=", 3.72],
  ["Cc1cc(C)c(N/C=C2/C(=O)N(c3ccccc3Cl)C(=O)c3ccccc32)c(C)c1", "µM", ">", 10],
  ["CC1CCN(C(=O)COc2ccc(C(C)C)cc2Br)CC1", "µM", "=", 8.51],
  ["Cc1cnc(NC(=O)c2ccc3nccnc3c2)s1", "µM", ">", 10],
  ["Cc1ccc(S(=O)(=O)n2c3ccc(Cl)cc3c3nc(C)sc32)cc1", "µM", ">", 8.76],
  ["Cc1c(C)n(CCCO)c2ncn3nc(COc4ccccc4)nc3c12", "µM", "=", 0.36],
  ["O=C(Nc1ccnn1Cc1ccccc1)c1ccc(C(=O)c2ccccc2)cc1", "µM", ">", 10],
  ["Cc1ccc(/C=N/Nc2nn3c(=O)c4ccccc4nc3c3ccccc23)o1", "µM", "=", 8.5]
]}

* * *

- Tested on: Plasmodium berghei
- assay-comment: Luciferase/luciferin-expressing antifolate-resistant parasites were used to infect a culture of HepG2 cells that were pre-incubated with compounds. Infected hepatocytes emit light due to the luciferase reaction. Assay results are presented as the percent inhibition of light emission compared to control. […]
- Format: functional
- condition-context: sporozoite, PBLUC_HILL_SLOPE 1.24, PBLUC_R_SQUARED 0.679, read-out: LUCIFERASE INFECTION ASSAY - IC50

{"columns": ["sample-smiles", "system-under-test", "IC50 [µM]"],
 "data": [
  ["CS(=O)(=O)c1nc2ccccc2n1Cc1cc(=O)n2ccccc2n1", "Plasmodium berghei", 5.51]
]}

* * *

- Tested on: Plasmodium berghei
- assay-comment: Luciferase/luciferin-expressing antifolate-resistant parasites were used to infect a culture of HepG2 cells that were pre-incubated with compounds. Infected hepatocytes emit light due to the luciferase reaction. Assay results are presented as the percent inhibition of light emission compared to control. […]
- Assay type: functional
- condition-context: sporozoite, PBLUC_HILL_SLOPE 2.75, PBLUC_R_SQUARED 0.0661, read-out: LUCIFERASE INFECTION ASSAY - IC50

{"columns": ["sample-smiles", "system-under-test", "IC50, µM"],
 "data": [
  ["CC(C)(C)c1ccc(CSc2nncn2-c2ccc(OCc3ccccc3)cc2)cc1", "Plasmodium berghei", 5.39]
]}

* * *

- System: Plasmodium berghei
- assay-comment: Luciferase/luciferin-expressing antifolate-resistant parasites were used to infect a culture of HepG2 cells that were pre-incubated with compounds. Infected hepatocytes emit light due to the luciferase reaction. Assay results are presented as the percent inhibition of light emission compared to control. […]
- Format: functional
- condition-context: sporozoite, HEPG2TOX_HILL_SLOPE 1.95, HEPG2TOX_R_SQUARED 0.988, PBLUC_HILL_SLOPE 12.2, PBLUC_R_SQUARED 0.455, read-out: LUCIFERASE INFECTION ASSAY - IC50

{"columns": ["sample-smiles", "readout-units", "IC50"],
 "data": [
  ["O=C(Nc1cccc(F)c1)Nc1ccc2nc(Cc3ccccc3)nn2c1", "µM", 1.12]
]}

* * *

- Test system: Plasmodium berghei
- assay-comment: Luciferase/luciferin-expressing antifolate-resistant parasites were used to infect a culture of HepG2 cells that were pre-incubated with compounds. Infected hepatocytes emit light due to the luciferase reaction. Assay results are presented as the percent inhibition of light emission compared to control. […]
- Assay type: functional
- condition-context: sporozoite, FFLUC_HILL_SLOPE 14.4, FFLUC_R_SQUARED 0.344, HEPG2TOX_HILL_SLOPE 0.95, HEPG2TOX_R_SQUARED 0.974, PBLUC_HILL_SLOPE 2.04, PBLUC_R_SQUARED 0.707, read-out: LUCIFERASE INFECTION ASSAY - IC50
pIC50: −log10 of the molar value.
reported-property: pIC50

{"columns": ["sample-smiles", "readout-number"],
 "data": [
  ["O=C(NC(=S)NNc1ncc(C(F)(F)F)cc1Cl)c1cccs1", 6.43]
]}

The reported measurements were obtained from ChEMBL document CHEMBL4483862.
